Would you mind telling me the reported pIC50 of each entry?
- measuredOn: PD-1-Ig binding to PD-L1-TVMV-His (PD-L1-His) (Homo sapiens)
- Construct: hPDL1(19-239)-TVMV-His; made in house; host or cells: HEK293T cells
- testSummary: PD-1/PD-L1 Homogenous Time-Resolved Fluorescence (HTRF) binding assay
- experimentalConditions: PD-1-Ig (20 nM) / PD-L1-His (10 nM); range classes
pIC50: −log10 of the molar value. Non-standard residues stand in square brackets, D forms with d. Residues, ends and D or L forms follow the SMILES beside them. Trp(1-CH2COOH) = N[C@@H](Cc1cn(CC(=O)O)c2ccccc12)C(=O)O; Phe(4-Cl) = N[C@@H](Cc1ccc(Cl)cc1)C(=O)O; Hyp = O=C(O)[C@@H]1C[C@@H](O)CN1; NMeNle = CCCC[C@H](NC)C(=O)O; Pip = O=C(O)[C@@H]1CCCCN1; Dab = NCC[C@H](N)C(=O)O; Dap = NC[C@H](N)C(=O)O; Ava = NCCCCC(=O)O

Illustrative cases are given below, each with its answer.
CCCC[C@H]1C(=O)N(C)[C@@H](CCCC)C(=O)N[C@@H](CCC(=O)O)C(=O)N[C@H](C(N)=O)CNCC(=O)N[C@@H](Cc2ccc(O)cc2)C(=O)N2CCCC[C@H]2C(=O)N[C@@H](CC(N)=O)C(=O)N2CCC[C@H]2C(=O)N[C@@H](CCC(N)=O)C(=O)N[C@@H](CCC(N)=O)C(=O)N2C[C@H](O)C[C@H]2C(=O)N[C@@H](Cc2c[nH]c3ccccc23)C(=O)N[C@@H](CC(N)=O)C(=O)N[C@@H](Cc2cn(CC(=O)O)c3ccccc23)C(=O)N1C ... 8.00 to 9.00
CCCC[C@H]1C(=O)N(C)[C@@H](CCCC)C(=O)N[C@@H](CC(C)C)C(=O)NCCCCC(=O)N[C@@H](Cc2ccc(Cl)cc2)C(=O)N2CCCC[C@H]2C(=O)N[C@@H](CC(N)=O)C(=O)N2CCC[C@H]2C(=O)N[C@@H](CN)C(=O)N[C@@H](CC(C)C)C(=O)N2C[C@H](O)C[C@H]2C(=O)N[C@@H](Cc2c[nH]c3ccccc23)C(=O)N[C@@H](CCN)C(=O)N[C@@H](Cc2cn(CC(=O)O)c3ccccc23)C(=O)N1C [Example 10537] (cyclo([Ava][Phe(4-Cl)][Pip]NP[Dap]L[Hyp]W[Dab][Trp(1-CH2COOH)][NMeNle][NMeNle]L)) ... 7.00 to 8.00
CCCC[C@H]1C(=O)N(C)[C@@H](CCCC)C(=O)N[C@@H](CC(C)C)C(=O)N[C@H](C(=O)NCC(N)=O)CNCC(=O)N[C@@H](Cc2ccc(O)cc2)C(=O)N(C)[C@@H](C)C(=O)N[C@@H](CC(N)=O)C(=O)N2CCC[C@H]2C(=O)N[C@@H](Cc2cnc[nH]2)C(=O)N[C@@H](CC(C)C)C(=O)N2C[C@H](O)C[C@H]2C(=O)N[C@@H](Cc2c[nH]c3ccccc23)C(=O)N[C@@H](CO)C(=O)N[C@@H](Cc2cn(CC(=O)O)c3ccccc23)C(=O)N1C ... 8.00 to 9.00
CCCC[C@H]1C(=O)N(C)[C@@H](CCCC)C(=O)N[C@@H](CC(C)C)C(=O)N[C@H](C(N)=O)COCC(=O)N[C@@H](Cc2ccc(O)cc2)C(=O)N2CCCC[C@H]2C(=O)N[C@@H](CC(N)=O)C(=O)N2CCC[C@H]2C(=O)N[C@@H](CN)C(=O)N[C@@H](CC(C)C)C(=O)N2C[C@H](O)C[C@H]2C(=O)N[C@@H](Cc2c[nH]c3ccccc23)C(=O)N[C@@H](CCN)C(=O)N[C@@H](Cc2cn(CC(=O)O)c3ccccc23)C(=O)N1C ... 8.00 to 9.00

Exam item: State the recorded pIC50 for this entry: CCCC[C@H]1C(=O)N(C)[C@@H](CCCC)C(=O)N[C@@H](CC(C)C)C(=O)N[C@H](C(N)=O)CNCC(=O)N[C@@H](Cc2ccc(F)cc2)C(=O)N2CCCC[C@H]2C(=O)N[C@@H](CC(N)=O)C(=O)N2CCC[C@H]2C(=O)N[C@@H](CCC(N)=O)C(=O)N[C@@H](CCC(N)=O)C(=O)N2C[C@H](O)C[C@H]2C(=O)N[C@@H](Cc2c[nH]c3ccccc23)C(=O)N[C@@H](CC(N)=O)C(=O)N[C@@H](Cc2cn(CC(=O)O)c3ccccc23)C(=O)N1C
Marked response: 8.00 to 9.00

----------
- measuredOn: PD-1-Ig binding to PD-L1-TVMV-His (PD-L1-His) (Homo sapiens, UniProt Q9NZQ7)
- Construct: hPDL1(19-239)-TVMV-His; made in house; host or cells: HEK293T cells
- Sequence (Q9NZQ7 with tags, fused parts or gaps): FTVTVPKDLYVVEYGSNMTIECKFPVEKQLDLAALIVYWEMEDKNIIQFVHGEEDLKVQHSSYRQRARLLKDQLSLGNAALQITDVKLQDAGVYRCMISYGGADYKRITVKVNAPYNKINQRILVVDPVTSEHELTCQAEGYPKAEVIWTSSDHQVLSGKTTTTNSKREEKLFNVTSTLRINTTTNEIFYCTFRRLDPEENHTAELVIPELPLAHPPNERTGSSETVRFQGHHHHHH
- testSummary: PD-1/PD-L1 Homogenous Time-Resolved Fluorescence (HTRF) binding assay
- experimentalConditions: PD-1-Ig (20 nM) / PD-L1-His (10 nM); range classes
Would you mind telling me the reported IC50 of each entry?

Hi, could you look up IC50 for each item in my list?
1. CCCC[C@H]1C(=O)N(C)[C@@H](CCCC)C(=O)NC(CC(C)C)C(=O)N[C@H](C(N)=O)CNCC(=O)N[C@@H](Cc2ccc(O)cc2)C(=O)N(C)[C@@H](C)C(=O)N[C@@H](CC(N)=O)C(=O)N2CCC[C@H]2C(=O)N[C@@H](CN)C(=O)N[C@@H](CC(C)C)C(=O)N2C[C@H](O)C[C@H]2C(=O)N[C@@H](Cc2c[nH]c3ccccc23)C(=O)N[C@@H](CCCCN)C(=O)N[C@@H](Cc2cn(CC(=O)O)c3ccccc23)C(=O)N1C (stereo partly drawn)
2. CCCC[C@H]1C(=O)N(C)[C@@H](CCCC)C(=O)N[C@@H](CCC(=O)O)C(=O)N[C@H](C(=O)NCC(N)=O)CNCC(=O)N[C@@H](Cc2ccc(O)cc2)C(=O)N(C)[C@@H](C)C(=O)N[C@@H](CC(N)=O)C(=O)N2CCC[C@H]2C(=O)N[C@@H](CCC(N)=O)C(=O)N[C@@H](CC(=O)O)C(=O)N2C[C@H](O)C[C@H]2C(=O)N[C@@H](Cc2c[nH]c3ccccc23)C(=O)N[C@@H](CC(N)=O)C(=O)N[C@@H](Cc2cn(CC(=O)O)c3ccccc23)C(=O)N1C

Marked response:
10 to 99 nM
1 to 9.9 nM

----------
Would you mind telling me the reported IC50 of each entry?
- measuredOn: PD-1-Ig binding to PD-L1-TVMV-His (PD-L1-His) (Homo sapiens, UniProt Q9NZQ7)
- Construct: hPDL1(19-239)-TVMV-His; made in house; host or cells: HEK293T cells
- testSummary: PD-1/PD-L1 Homogenous Time-Resolved Fluorescence (HTRF) binding assay
- experimentalConditions: PD-1-Ig (20 nM) / PD-L1-His (10 nM); range classes
Non-standard residues stand in square brackets, D forms with d. Residues, ends and D or L forms follow the SMILES beside them. Trp(1-CH2COOH) = N[C@@H](Cc1cn(CC(=O)O)c2ccccc12)C(=O)O; Hyp = O=C(O)[C@@H]1C[C@@H](O)CN1; NMeNle = CCCC[C@H](NC)C(=O)O; Pip = O=C(O)[C@@H]1CCCCN1; Dab = NCC[C@H](N)C(=O)O; Dap = NC[C@H](N)C(=O)O; Ava = NCCCCC(=O)O

CCCC[C@H]1C(=O)N(C)[C@@H](CCCC)C(=O)NC(CC(C)C)C(=O)N[C@H](C(=O)NCC(N)=O)CNCC(=O)N[C@@H](Cc2ccc(O)cc2)C(=O)N(C)[C@@H](C)C(=O)N[C@@H](CC(N)=O)C(=O)N2CCC[C@H]2C(=O)N[C@@H](CN)C(=O)N[C@@H](CCC(=O)O)C(=O)N2C[C@H](O)C[C@H]2C(=O)N[C@@H](Cc2c[nH]c3ccccc23)C(=O)N[C@@H](CCN)C(=O)N[C@@H](Cc2cn(CC(=O)O)c3ccccc23)C(=O)N1C (some centres unmarked) ... 1 to 9.9 nM
CCCC[C@H]1C(=O)N(C)[C@@H](CCCC)C(=O)N[C@@H](CC(C)C)C(=O)NCCCCC(=O)N[C@@H](Cc2ccc(OC)cc2)C(=O)N2CCCC[C@H]2C(=O)N[C@@H](CC(=O)O)C(=O)N2CCC[C@H]2C(=O)N[C@@H](CN)C(=O)N[C@@H](CC(C)C)C(=O)N2C[C@H](O)C[C@H]2C(=O)N[C@@H](Cc2c[nH]c3ccccc23)C(=O)N[C@@H](CCN)C(=O)N[C@@H](Cc2cn(CC(=O)O)c3ccccc23)C(=O)N1C [Example 10572] (cyclo([Ava]Y(Me)[Pip]DP[Dap]L[Hyp]W[Dab][Trp(1-CH2COOH)][NMeNle][NMeNle]L)) ... 1 to 9.9 nM
CCCC[C@H]1C(=O)N(C)[C@@H](CCCC)C(=O)N[C@@H](CC(C)C)C(=O)N[C@H](C(N)=O)COCC(=O)N[C@@H](Cc2ccc(OC)cc2)C(=O)N2CCCC[C@H]2C(=O)N[C@@H](CC(N)=O)C(=O)N2CCC[C@H]2C(=O)N[C@@H](CN)C(=O)N[C@@H](CCC(=O)O)C(=O)N2C[C@H](O)C[C@H]2C(=O)N[C@@H](Cc2c[nH]c3ccccc23)C(=O)N[C@@H](CCN)C(=O)N[C@@H](Cc2cn(CC(=O)O)c3ccccc23)C(=O)N1C ... 1 to 9.9 nM
CCCC[C@H]1C(=O)N(C)[C@@H](CCCC)C(=O)N[C@@H](CC(C)C)C(=O)N[C@H](C(=O)NCC(N)=O)CNCC(=O)N[C@@H](Cc2ccc(OC)cc2)C(=O)N(C)[C@@H](C)C(=O)N[C@@H](CC(N)=O)C(=O)N2CCC[C@H]2C(=O)N[C@@H](CN)C(=O)N[C@@H](CC(C)C)C(=O)N2C[C@H](O)C[C@H]2C(=O)N[C@@H](Cc2c[nH]c3ccccc23)C(=O)N[C@@H](CCN)C(=O)N[C@@H](Cc2cn(CC(=O)O)c3ccccc23)C(=O)N1C ... 1 to 9.9 nM

Now turn to the next molecule.
Exam item: Reported IC50 for PD-1-Ig binding to PD-L1-TVMV-His (PD-L1-His) (Homo sapiens, UniProt Q9NZQ7), given CCCC[C@H]1C(=O)N(C)[C@@H](CCCC)C(=O)N[C@@H](CC(C)C)C(=O)N[C@H](C(N)=O)COCC(=O)N[C@@H](Cc2ccc(C)cc2)C(=O)N2CCCC[C@H]2C(=O)N[C@@H](CC(N)=O)C(=O)N2CCC[C@H]2C(=O)N[C@@H](CN)C(=O)N[C@@H](CC(C)C)C(=O)N2C[C@H](O)C[C@H]2C(=O)N[C@@H](Cc2c[nH]c3ccccc23)C(=O)N[C@@H](CCN)C(=O)N[C@@H](Cc2cn(CC(=O)O)c3ccccc23)C(=O)N1C ?
Marked response: 10 to 99 nM
